Can you tell me Anti-CD28 Fab signal in the presence of CD28 (phage binding ELISA) for the items I'm about to list?
biological target: T1, Anti-CD28 Fab (SEQ ID NOs: 696, 697); assay: phage ELISA on captured anti-CD28 Fab; competitor CD28 antigen pre-incubated in the wells;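 note: clonal phage supernatants added to wells preloaded with CD28 antigen in blocking buffer, control wells buffer only, bound phage read via HRP-linked anti-M13 antibody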
T1 construct: Biotinylated Fab captured on neutravidin coated plates in the phage ELISA
T1 sequence (VH, as listed by the source, chain 1 of 2): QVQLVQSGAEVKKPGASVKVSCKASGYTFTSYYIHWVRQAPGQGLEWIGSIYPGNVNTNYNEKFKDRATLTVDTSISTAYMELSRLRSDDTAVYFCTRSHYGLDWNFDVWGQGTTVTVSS
T1 sequence (VL, as listed by the source, chain 2 of 2): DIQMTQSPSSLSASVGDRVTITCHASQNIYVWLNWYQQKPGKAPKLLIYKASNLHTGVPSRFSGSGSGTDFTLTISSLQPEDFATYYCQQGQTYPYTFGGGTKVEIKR
Answer as a number with no unit attached.

## Task What value of measured Anti-CD28 Fab signal in the presence of CD28 (phage binding ELISA) is listed for YCEGHLPEYMMKCL (not shown: fused to the pIII filament protein of the bacteriophage) [Phage-779] ?
## Result 0.27

## Task YCEGHMSEYMAKCL (not shown: fused to the pIII filament protein of the bacteriophage) [Phage-775] , same question.
## Result 0.11

## Task Now try YCEGHSWEYIGKCL (not shown: fused to the pIII filament protein of the bacteriophage) [Phage-782] .
## Result 0.07

## Task Try YCEGHSYEYMWKCL (not shown: fused to the pIII filament protein of the bacteriophage) [Phage-778] next.
## Result 0.08

## Task Now consider YCDGHLPEYMRKCL (not shown: fused to the pIII filament protein of the bacteriophage) [Phage-780] .
## Result 0.08

## Task Entry to check: YCEGHRSEYMAKCL (not shown: fused to the pIII filament protein of the bacteriophage) [Phage-786]
## Result 0.06

## Task Try this binder next: YCEGHTSEYMNKCL (not shown: fused to the pIII filament protein of the bacteriophage) [Phage-785]
## Result 0.06

## Task Thanks! And YCDGHSALYMSKCL (not shown: fused to the pIII filament protein of the bacteriophage) [Phage-783] ?
## Result 0.08

Cited source: patent US20260242478A1
